System name: Sigma non-opioid intracellular receptor 1 (Cavia porcellus, UniProt Q60492)
Sequence (Q60492 whole entry): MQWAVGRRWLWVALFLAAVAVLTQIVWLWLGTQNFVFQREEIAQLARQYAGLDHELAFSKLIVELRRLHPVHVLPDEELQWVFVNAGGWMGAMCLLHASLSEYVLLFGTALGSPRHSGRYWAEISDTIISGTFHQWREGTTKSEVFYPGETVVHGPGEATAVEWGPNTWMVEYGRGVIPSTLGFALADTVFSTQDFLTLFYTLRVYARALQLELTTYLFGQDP
Assay protocol: Displacement of [3H]-(+)-pentazocine from sigma 1 receptor in guinea pig brain membranes after 120 mins by scintillation counting

# Molecule, Ki
records = [
    ("COC1Cc2c(csc2-c2cccnc2)C2(CCN(Cc3ccccc3)CC2)O1 (stereo not given)", "2.2 nM"),
    ("COC1Cc2cc(-c3ccc(C(C)=O)cc3)sc2C2(CCN(Cc3ccccc3)CC2)O1 (stereo not given)", "59 nM"),
    ("c1ccc(CN2CCC3(CC2)OCCc2c3csc2-c2cccc3ccccc23)cc1", "4 nM"),
    ("COc1ccc(-c2scc3c2CC(OC)OC32CCN(Cc3ccccc3)CC2)cc1 (stereo not given)", "2.2 nM"),
    ("c1ccc(CN2CCC3(CC2)OCCc2c(-c4ccccc4)csc23)cc1", "1.6 nM"),
]

====

Assay protocol: Displacement of [3H]di-o-tolylguanidine from Sigma 2 receptor in rat liver membrane after 120 mins by scintillation counting
Format: cell membranes
pKi: −log10 of the molar value.
Collected pKi values appear next to each entry.
Measure name: pKi

# Compound, Measure name, Value prefix, Result
data = [
    ("c1ccc(CN2CCC3(CC2)OCCc2ccsc23)cc1", "pKi", "=", 6.83),
    ("COC1Cc2cc(-c3ccc(C)cc3)sc2C2(CCN(Cc3ccccc3)CC2)O1 (centres undefined)", "pKi", "<", 6.00),
    ("COC1Cc2sc(-c3ccccc3)cc2C2(CCN(Cc3ccccc3)CC2)O1 (centres undefined)", "pKi", "=", 6.28),
    ("COC1Cc2c(-c3ccccc3)csc2C2(CCN(Cc3ccccc3)CC2)O1 (centres undefined)", "pKi", "<", 6.00),
    ("C1=Cc2ccsc2C2(CCN(Cc3ccccc3)CC2)O1", "pKi", "=", 6.63),
    ("COC1Cc2sc(-c3ccc(-c4ccccc4)cc3)cc2C2(CCN(Cc3ccccc3)CC2)O1 (centres undefined)", "pKi", "<", 6.00),
    ("c1ccc(CN2CCC3(CC2)OCCc2cc(-c4ccccc4)sc23)cc1", "pKi", "=", 6.55),
    ("COC1Cc2cc(-c3ccc([N+](=O)[O-])cc3)sc2C2(CCN(Cc3ccccc3)CC2)O1 (centres undefined)", "pKi", "<", 6.00),
    ("COC1Cc2ccsc2C2(CCN(Cc3ccccc3)CC2)O1 (centres undefined)", "pKi", "<", 6.00),
]

====

System name: Sigma non-opioid intracellular receptor 1 (Cavia porcellus)
Assay protocol: Displacement of [3H]-(+)-pentazocine from sigma 1 receptor in guinea pig brain membranes after 120 mins by scintillation counting
Assay type: cell membranes, Membrane
Measure name: log10 of Ki (log10 of the value in nM)

# Compound, System name, Result
rows = [
    ("COC1Cc2ccsc2C2(CCN(Cc3ccccc3)CC2)O1 (stereo not given)", "Sigma non-opioid intracellular receptor 1 (Cavia porcellus)", 0.28),
    ("C1=Cc2ccsc2C2(CCN(Cc3ccccc3)CC2)O1", "Sigma non-opioid intracellular receptor 1 (Cavia porcellus)", 0.53),
    ("COC1Cc2sc(-c3ccc(-c4ccccc4)cc3)cc2C2(CCN(Cc3ccccc3)CC2)O1 (stereo not given)", "Sigma non-opioid intracellular receptor 1 (Cavia porcellus)", 2.34),
    ("COC1Cc2cscc2C2(CCN(Cc3ccccc3)CC2)O1 (stereo not given)", "Sigma non-opioid intracellular receptor 1 (Cavia porcellus)", -0.66),
    ("COC1Cc2sc(-c3ccc(C#N)cc3)cc2C2(CCN(Cc3ccccc3)CC2)O1 (stereo not given)", "Sigma non-opioid intracellular receptor 1 (Cavia porcellus)", 1.95),
    ("N#Cc1ccc(-c2scc3c2CCOC32CCN(Cc3ccccc3)CC2)cc1", "Sigma non-opioid intracellular receptor 1 (Cavia porcellus)", 0.53),
    ("COC1Cc2cc(-c3ccc(C)cc3)sc2C2(CCN(Cc3ccccc3)CC2)O1 (stereo not given)", "Sigma non-opioid intracellular receptor 1 (Cavia porcellus)", 1.46),
    ("COC1Cc2c(csc2-c2ccccc2)C2(CCN(Cc3ccccc3)CC2)O1 (stereo not given)", "Sigma non-opioid intracellular receptor 1 (Cavia porcellus)", 0.00),
    ("COC1Cc2c(csc2-c2ccc(C)cc2)C2(CCN(Cc3ccccc3)CC2)O1 (stereo not given)", "Sigma non-opioid intracellular receptor 1 (Cavia porcellus)", 0.30),
    ("COC1Cc2c(csc2-c2ccc(C(F)(F)F)cc2)C2(CCN(Cc3ccccc3)CC2)O1 (stereo not given)", "Sigma non-opioid intracellular receptor 1 (Cavia porcellus)", 0.76),
]
